Where do the numbers come from? From BindingDB's records for PubMed 7910212.

- Experimental Target: Alpha-2C adrenergic receptor (Rattus norvegicus)
- Sequence (P22086 whole entry): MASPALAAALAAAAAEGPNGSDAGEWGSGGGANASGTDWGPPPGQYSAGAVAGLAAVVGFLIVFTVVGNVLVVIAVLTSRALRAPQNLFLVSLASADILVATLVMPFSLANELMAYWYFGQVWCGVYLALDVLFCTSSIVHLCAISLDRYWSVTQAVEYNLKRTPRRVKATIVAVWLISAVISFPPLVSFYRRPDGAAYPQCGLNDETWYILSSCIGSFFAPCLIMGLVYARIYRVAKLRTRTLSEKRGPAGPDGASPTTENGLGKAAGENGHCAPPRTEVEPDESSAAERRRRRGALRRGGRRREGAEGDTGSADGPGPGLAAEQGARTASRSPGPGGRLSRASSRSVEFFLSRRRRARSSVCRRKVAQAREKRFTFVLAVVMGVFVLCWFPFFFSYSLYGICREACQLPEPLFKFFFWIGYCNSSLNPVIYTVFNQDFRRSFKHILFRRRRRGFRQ
pKi: −log10 of the molar value.
Recorded Endpoint: pKi

QUERY: What measured pKi goes with `Cc1cccc(NC(=O)N[C@@H]2N=C(c3ccccc3)c3ccccc3N(CC(=O)c3ccccc3C)C2=O)c1` ?
RESULT: < 5.00

---

- Experimental Target: Muscarinic acetylcholine receptor M1 (Rattus norvegicus, UniProt P08482)
- Sequence (P08482 whole entry): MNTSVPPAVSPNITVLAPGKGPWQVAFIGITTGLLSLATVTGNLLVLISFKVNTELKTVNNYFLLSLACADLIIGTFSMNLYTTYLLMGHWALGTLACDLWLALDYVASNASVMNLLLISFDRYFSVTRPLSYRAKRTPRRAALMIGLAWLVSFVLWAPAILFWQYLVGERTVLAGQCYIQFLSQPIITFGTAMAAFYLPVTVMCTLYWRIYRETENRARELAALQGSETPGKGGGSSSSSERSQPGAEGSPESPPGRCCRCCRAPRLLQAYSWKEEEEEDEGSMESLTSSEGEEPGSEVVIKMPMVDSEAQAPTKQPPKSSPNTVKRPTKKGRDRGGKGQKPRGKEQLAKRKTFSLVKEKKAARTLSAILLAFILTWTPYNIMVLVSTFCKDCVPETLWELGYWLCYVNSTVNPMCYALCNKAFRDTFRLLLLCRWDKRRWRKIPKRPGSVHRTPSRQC
pKi: −log10 of the molar value.
Recorded Endpoint: pKi

QUERY: Using the record for `Cc1cccc(NC(=O)N[C@@H]2N=C(c3ccccc3)c3ccccc3N(CC(=O)c3ccccc3C)C2=O)c1` , report its pKi.
RESULT: < 5.00
